target: DNA topoisomerase 1 (Homo sapiens); assay: Inhibition of human DNA topoisomerase 1-mediated relaxation of supercoiled DNA by gel electrophoresis
Sequence (P11387 whole entry): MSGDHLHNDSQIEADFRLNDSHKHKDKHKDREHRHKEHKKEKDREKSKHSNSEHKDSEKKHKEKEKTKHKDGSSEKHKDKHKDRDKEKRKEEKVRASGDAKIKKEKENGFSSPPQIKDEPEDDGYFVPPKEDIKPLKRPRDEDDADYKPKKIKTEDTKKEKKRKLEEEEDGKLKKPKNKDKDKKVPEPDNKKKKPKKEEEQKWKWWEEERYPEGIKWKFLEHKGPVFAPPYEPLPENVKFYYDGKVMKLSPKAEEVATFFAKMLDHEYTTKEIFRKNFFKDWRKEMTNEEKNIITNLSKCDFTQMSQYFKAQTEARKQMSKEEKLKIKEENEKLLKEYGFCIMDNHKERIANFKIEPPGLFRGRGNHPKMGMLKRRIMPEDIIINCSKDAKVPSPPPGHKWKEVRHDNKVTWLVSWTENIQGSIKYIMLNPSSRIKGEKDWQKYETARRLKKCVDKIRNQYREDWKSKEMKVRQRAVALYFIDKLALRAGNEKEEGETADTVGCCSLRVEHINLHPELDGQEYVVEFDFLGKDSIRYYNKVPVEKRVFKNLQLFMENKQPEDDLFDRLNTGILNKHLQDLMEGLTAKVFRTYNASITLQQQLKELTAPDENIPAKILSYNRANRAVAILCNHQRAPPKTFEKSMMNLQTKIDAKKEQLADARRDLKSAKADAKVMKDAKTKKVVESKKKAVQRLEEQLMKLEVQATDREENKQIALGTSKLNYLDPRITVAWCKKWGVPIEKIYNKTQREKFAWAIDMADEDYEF
pIC50: −log10 of the molar value.

compound | pIC50
C/C=C(/C)C(=O)O[C@H]1[C@H](OC(=O)/C(C)=C\C)[C@]2(CO)[C@H](O)C[C@]3(C)C(=CC[C@@H]4[C@@]5(C)CC[C@H](O)[C@](C)(CO)[C@@H]5CC[C@]43C)[C@@H]2CC1(C)C | < 3.60
C/C=C(/C)C(=O)O[C@H]1[C@H](OC(C)=O)[C@]2(CO)[C@H](O)C[C@]3(C)C(=CC[C@@H]4[C@@]5(C)CC[C@H](O[C@@H]6O[C@H](C(=O)O)[C@@H](O)[C@H](O[C@@H]7O[C@@H](CO)[C@H](O)[C@H]7O)[C@H]6O[C@@H]6O[C@H](CO)[C@@H](O)[C@H](O)[C@H]6O)[C@](C)(CO)[C@@H]5CC[C@]43C)[C@@H]2CC1(C)C [AESCULIOSIDE III] | < 3.60
